biological target: HPK1 protein (Homo sapiens, UniProt Q92918); construct: host or cells: human PBMC (CD4+ and CD8+ T cells gated in the FACS assay); test: HPK1 Protein Degradation Assay in Human PBMC (FACS); format: cell-based; details: CD4+ T Cells, 24 h compound treatment, read-out: Protein degradation Dmax, CD4+ T Cells
Sequence (Q92918 whole entry): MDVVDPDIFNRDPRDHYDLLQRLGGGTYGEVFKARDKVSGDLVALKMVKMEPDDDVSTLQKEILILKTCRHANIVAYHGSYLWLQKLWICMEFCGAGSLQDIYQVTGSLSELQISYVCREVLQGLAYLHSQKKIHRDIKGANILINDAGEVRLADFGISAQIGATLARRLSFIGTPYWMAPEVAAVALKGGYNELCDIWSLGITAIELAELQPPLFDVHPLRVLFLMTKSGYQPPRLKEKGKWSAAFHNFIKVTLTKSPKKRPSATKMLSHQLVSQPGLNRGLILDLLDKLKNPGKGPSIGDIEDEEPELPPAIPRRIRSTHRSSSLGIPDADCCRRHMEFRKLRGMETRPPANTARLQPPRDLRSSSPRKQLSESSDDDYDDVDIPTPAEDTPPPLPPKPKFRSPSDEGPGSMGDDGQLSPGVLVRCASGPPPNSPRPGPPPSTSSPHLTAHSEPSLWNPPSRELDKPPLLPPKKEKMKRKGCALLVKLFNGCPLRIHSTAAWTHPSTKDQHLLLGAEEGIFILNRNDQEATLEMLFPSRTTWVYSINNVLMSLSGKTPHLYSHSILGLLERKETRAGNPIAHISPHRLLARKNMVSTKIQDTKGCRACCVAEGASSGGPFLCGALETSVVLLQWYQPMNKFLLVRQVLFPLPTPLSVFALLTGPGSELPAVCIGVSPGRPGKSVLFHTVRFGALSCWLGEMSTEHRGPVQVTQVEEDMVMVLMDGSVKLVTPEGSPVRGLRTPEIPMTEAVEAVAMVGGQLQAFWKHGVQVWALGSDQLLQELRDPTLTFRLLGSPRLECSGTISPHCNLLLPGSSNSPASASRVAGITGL
Listed next: entries and their corresponding Dmax.
# number only, unit % dropped from output

Reference set, count: 3
{"substance-smiles": "Cc1cc(-c2cnc3[nH]cc(-c4ccc(C(=O)N(C)C)cc4)c3c2)cc2c1CN(CCC(=O)N1CCN(c3ccc(N4CCC(=O)NC4=O)cc3)CC1)CC2", "Dmax, %": 96}
{"substance-smiles": "Cc1cc(-c2cnc3[nH]cc(-c4ccc(C(=O)N(C)C)cc4)c3n2)cc2c1CN(CCC(=O)N1CCN(c3ccc(N4CCC(=O)NC4=O)cc3)CC1)CC2", "Dmax, %": 95}
{"substance-smiles": "Cc1cc(-c2cnc3[nH]cc(-c4ccc(C(=O)N(C)C[C@H](C)O)cc4)c3c2)cc2c1CN(CCC(=O)N1CCN(c3ccc(N4CCC(=O)NC4=O)cc3)CC1)CC2", "Dmax, %": 93}

Continue with the compound presented below.
Q. Quick one: give measured Dmax for Cc1cc(-c2cnc3[nH]cc(-c4ccc(C(=O)N(C)C[C@H](C)O)cc4)c3n2)cc2c1CN(CCC(=O)N1CCN(c3ccc(N4CCC(=O)NC4=O)cc3)CC1)CC2
A. 95

====

molecular target: HPK1 protein (Homo sapiens, UniProt Q92918); construct: host or cells: human PBMC (CD4+ and CD8+ T cells gated in the FACS assay); assay: HPK1 Protein Degradation Assay in Human PBMC (Western Blot); format: cell-based; conditions: 24 h compound incubation
Listed next: entries and their corresponding DC50.
# number only, unit nM dropped from output

Reference set, count: 3
{"molecule": "Cc1cc(-c2c[nH]c3ncc(-c4cc(C)c5c(c4)CCN(CCC(=O)N4CCN(c6ccc(N7CCC(=O)NC7=O)cc6)CC4)C5)nc23)ccc1C(=O)N(C)C", "quantity": "DC50", "measured-number": 23}
{"molecule": "Cc1cc(-c2c[nH]c3ncc(-c4cc(C)c5c(c4)CCN(CCC(=O)NC4CCN(c6ccc(N7CCC(=O)NC7=O)cc6)CC4)C5)nc23)ccc1C(=O)N(C)C", "quantity": "DC50", "measured-number": 59}
{"molecule": "Cc1cc(-c2c[nH]c3ncc(-c4cc(C)c5c(c4)CCN(CCNC(=O)C4CCN(c6ccc7c(c6)C(=O)N(C6CCC(=O)NC6=O)C7=O)CC4)C5)nc23)ccc1C(=O)N(C)C (stereo not shown)", "quantity": "DC50", "measured-number": 183}

Q. Quick one: give measured DC50 for Cc1cc(-c2c[nH]c3ncc(-c4cc(C)c5c(c4)CCN(CCC(=O)NCC4CCN(c6ccc(C7CCC(=O)NC7=O)cc6)CC4)C5)nc23)ccc1C(=O)N(C)C (stereo not shown)
A. 87

====

biological target: HPK1 protein (Homo sapiens); construct: host or cells: human PBMC (CD4+ and CD8+ T cells gated in the FACS assay); experiment: HPK1 Protein Degradation Assay in Human PBMC (FACS); type: cell-based; conditions: CD4+ T Cells, 24 h compound treatment, read-out: Protein degradation DC50, CD4+ T Cells
quantity: DC50 (µM)
# number only, unit µM dropped from output

Reference set, count: 3
{"compound": "Cc1cc(-c2cnc3[nH]cc(-c4ccc(C(=O)N(C)C)cc4)c3n2)cc2c1CN(CCC(=O)N1CCN(c3ccc(N4CCC(=O)NC4=O)cc3)CC1)CC2 [Example 5]", "uom": "µM", "DC50": 0.009}
{"compound": "Cc1cc(-c2cnc3[nH]cc(-c4ccc(C(=O)N(C)C[C@H](C)O)cc4)c3n2)cc2c1CN(CCC(=O)N1CCN(c3ccc(N4CCC(=O)NC4=O)cc3)CC1)CC2 [Example 7]", "uom": "µM", "DC50": 0.025}
{"compound": "Cc1cc(-c2cnc3[nH]cc(-c4ccc(C(=O)N(C)C)cc4)c3c2)cc2c1CN(CCC(=O)N1CCN(c3ccc(N4CCC(=O)NC4=O)cc3)CC1)CC2 [Example 6]", "uom": "µM", "DC50": 0.011}

Continue with the compound presented below.
Q. Quick one: give measured DC50 for Cc1cc(-c2cnc3[nH]cc(-c4ccc(C(=O)N(C)C[C@H](C)O)cc4)c3c2)cc2c1CN(CCC(=O)N1CCN(c3ccc(N4CCC(=O)NC4=O)cc3)CC1)CC2 [Example 9]
A. 0.019
